// reported TGI per item
# Test system: CCRF-CEM leukemia
# EXPERIMENT NOTES: NCI tumour cell line growth inhibition, 48 h

Request: Please report the recorded TGI for CN(C)Cc1cc(C(F)(F)F)ccc1C(O)(c1ccccc1)c1ccccc1 .
Response: 28.9 µM

Others:
Request: Endpoint output: TGI of C=CC[C@]1(/C=N/O)CN(S(=O)(=O)CC[Si](C)(C)C)C[C@H]2CC=CC[C@H]21 . Value?
Response: 40.7 µM

Request: Consider the molecule shown here: CN(C)CCNC(=O)c1cccc2c(=O)c3ccccc3oc12 What is its recorded TGI?
Response: > 100 µM

Request: Please look up its TGI: COC(=O)C1=C(OC(=O)/C(=C/c2ccccc2)c2ccc(Cl)cc2Cl)C(C(=O)OC)[C@@]2(O)[C@@H](C(=O)OC)[C@H](C)C[C@@H]1[C@@H]2C(=O)OC (some centres undefined)
Response: > 100 µM

###

# TGI values compiled below
# Test system: HOP-92 NSCLC
# EXPERIMENT NOTES: NCI tumour cell line growth inhibition, 48 h

Study these solved cases before continuing.
Request: Requested read-out TGI, target or system HOP-92 NSCLC, entry N#CSCC(Cl)=CCl (mixture of isomers)
Response: > 100 µM

Request: Please state recorded TGI (tested on HOP-92 NSCLC) of C/C(=N\NS(=O)(=O)c1ccc(C)cc1)c1ccccn1
Response: > 100 µM

Request: Any idea what TGI came out for COC(=O)c1ccc2[nH]c(O)c(C(=Nc3ccc(N(C)C(=O)CN4CCN(C)CC4)cc3)c3ccc4c(c3)OCO4)c2c1 on HOP-92 NSCLC?
Response: 7.75 µM

Request: Lab note: need TGI with HOP-92 NSCLC for entry O=C1OC(CCCN2CCCCC2)(c2ccccc2)CC12CCCC2 (configuration not stated) , please look it up.
Response: > 90.8 µM

Request: State its TGI on HOP-92 NSCLC: O=C(Nc1ccc(C(F)(F)F)cc1[N+](=O)[O-])C(=O)C1NC(=S)NC1=O (configuration not stated)
Response: > 100 µM

Next:
Request: Param readout = TGI; param system = HOP-92 NSCLC; param query = O=C1CS(=O)(=O)C(c2cccc(Oc3ccccc3)c2)N1c1ccc(Cl)cc1 (configuration not stated) ; response: value
Response: 23.8 µM

Request: Please tell me: TGI of Cc1ccc(C(=O)N/N=C(\N=Nc2cccc([N+](=O)[O-])c2)c2ccc(N(CCC#N)CCC#N)cc2C)cc1 , system HOP-92 NSCLC?
Response: > 100 µM

Request: Write down the reported TGI of C#CCn1c(=O)c(I)cn(/C(=C/C(=O)OCC)C(=O)OCC)c1=O , test system: HOP-92 NSCLC.
Response: 3.37 µM

Request: Form: Entry = CCCC1(CC(=O)O)OCCc2c1[nH]c1ccccc21 (configuration not stated) | System = HOP-92 NSCLC | TGI = ____
Response: > 100 µM

Request: Form field: TGI recorded for CN(C)CCC(=O)N1C/C(=C\c2ccc(Cl)c(Cl)c2)C(=O)/C(=C/c2ccc(Cl)c(Cl)c2)C1 with HOP-92 NSCLC (enter value)
Response: 0.977 µM

Request: Give HOP-92 NSCLC TGI for CCOC(=O)CCC(NC(=O)c1ccc(Nc2nc3ccc(C(F)(F)F)cc3nc2-c2ccccc2)cc1)C(=O)OCC (configuration not stated)
Response: > 100 µM

Request: Record N/N=C\c1c2ccccc2c(=O)n2c1oc1ccccc12 : what is its TGI with HOP-92 NSCLC?
Response: 38.7 µM

Request: // map CCC1C[N+]23CCc4c([nH]c5ccccc45)C2CC1CC3 (configuration not stated) to recorded TGI (system: HOP-92 NSCLC)
Response: > 100 µM

Request: I'm curious: which TGI was measured for NC(CCCC(N)P(=O)(O)O)P(=O)(O)O (configuration not stated) tested on HOP-92 NSCLC?
Response: > 100 µM

Request: Lab note: need TGI for Cc1cc(C)c2c(=O)cc(-c3cccc4ccccc34)[nH]c2n1 on HOP-92 NSCLC, anyone have it?
Response: > 77.1 µM

Request: Test system HOP-92 NSCLC; read-out TGI; what value for Cc1cc(C)nc(NS(=O)(=O)c2ccc(Nc3c4ccccc4nc4ccc(C(=O)Nc5ccc(S(N)(=O)=O)cc5)cc34)cc2)n1 ?
Response: > 100 µM

Request: Fill in the recorded TGI for this compound, with HOP-92 NSCLC as test system: CCC(CC)NC1=C(NC(C)=O)C(=O)c2ccccc2C1=O
Response: > 50 µM

Request: Fill in the recorded TGI for this compound, with HOP-92 NSCLC as test system: O=C1C(=O)c2ccccc2C(O)=C1C(C1=C(O)c2ccccc2C(=O)C1=O)c1ccc(Cl)cc1
Response: 44.1 µM

Request: Lab request: please report TGI under test system HOP-92 NSCLC for O=C(O)CO[C@@]12C#C/C=C\C#C[C@@H]3N(C(=O)Oc4ccccc4)c4ccccc4[C@]14O[C@@]34CCC2
Response: > 100 µM

Request: What value of TGI on HOP-92 NSCLC does O=C1C=C(Nc2ccccc2C(=O)CC(=O)C(=O)Nc2cccc([N+](=O)[O-])c2)c2ccccc2C1=O have?
Response: > 100 µM

###

# System: IGROV1 ovarian
# EXPERIMENT NOTES: NCI tumour cell line growth inhibition, 48 h
PROPERTY MEASURED: TGI

Request: Would you mind telling me what TGI value was observed for OC(CC1CCCCN1)c1ccc2c(c1)oc1ccccc12 (configuration not stated) ?
Response: > 100 µM

Request: For the molecule N#CCC(=O)N/N=C1/C(=O)N(c2ccc(Cl)cc2)C(=O)C(=O)C1c1nc2ccccc2s1 (configuration not stated) , what TGI is on record?
Response: > 100 µM

***
Request: # get_value(readout='TGI', item= CCCCCCNCCc1cnc[nH]1 )
Response: > 100 µM

Request: Request the reported TGI associated with O=NNc1ccc2ccccc2n1
Response: > 100 µM

Request: Which measured TGI value corresponds to N#C/C(=C/c1cccc(Oc2ccccc2)c1)c1ccccc1 ?
Response: > 100 µM

Request: Name the recorded TGI for COc1c(=O)cc2cc[nH]c3cc[nH]c1c23 .
Response: > 100 µM

Request: Quick one: TGI of CCC(CC)NC1=C(NC(C)=O)C(=O)c2ccccc2C1=O ?
Response: > 50 µM

Request: // returns reported TGI for input CCOC(=O)c1sc(=S)n(-c2ccc(Cl)cc2)c1-n1cc(-c2ccccc2)c(C#N)c1N
Response: 40.5 µM

Request: Query: TGI; subject: N[C@@H]1CCN(c2c(F)cc3c(=O)c(C(=O)O)cn4c3c2Oc2c-4ccc3c2ccc2ccccc23)C1
Response: 36.3 µM

Request: What value of TGI has been reported for the following molecule? O=C(O)c1c2c(cc3c1CC(Cc1ccccc1)C3=O)CCC2 (configuration not stated)
Response: > 100 µM

Request: Tell me the measured TGI of CN(C)CCNC(=O)c1cccc2c(=O)c3ccccc3oc12 , please.
Response: > 100 µM

Request: Given the entry CCCC(C)c1ccc(OCCCCCCN2CCNCC2)cc1 (configuration not stated) , report its measured TGI.
Response: 3.78 µM

Request: Form field: reported TGI of CC(=O)OCC1OC(N2C(c3ccccc3)=CC(c3cccs3)C(C#N)=C2S)C(OC(C)=O)C(OC(C)=O)C1OC(C)=O (configuration not stated)
Response: > 100 µM

Request: Request the reported TGI associated with CC(=O)C(C(c1ccccc1)N1CCOCC1)N1CCOCC1 (configuration not stated)
Response: > 100 µM

Request: // returns reported TGI for input CC1(C)[C@@H]2CC[C@]1(C)[C@H](OC(=O)CSC#N)C2
Response: > 100 µM

Request: For the molecule shown here, Cc1cc(Cl)ccc1OCC(=O)Nc1nc2c(Cl)cccc2s1 , give the reported TGI.
Response: > 100 µM

Request: Report TGI for O=C1C=C(Nc2ccccc2C(=O)CC(=O)C(=O)Nc2cccc([N+](=O)[O-])c2)c2ccccc2C1=O please.
Response: > 100 µM

Request: I would be grateful if you could share the reported TGI for C=CCn1c(N)c(C#N)c(C#N)c1CCC .
Response: > 100 µM

Request: If you can, please state the reported TGI value of Cc1nc2ccc(Br)cc2c(=O)n1-c1nnc(C(C)(C)C)s1 .
Response: > 10 µM

Request: Request the reported TGI associated with CCCCCCCCCCCC(=O)OCCOCCOCCOCCOCCOC(=O)CCCCCCCCCCC
Response: > 100 µM

Request: What value of TGI has been recorded for this entry: COC(=O)C1Cc2cc3c(cc2C1=O)CCC3 (configuration not stated)
Response: > 100 µM

Request: // query TGI value for entry CN(C)CCC(=O)N1C/C(=C\c2ccc(Cl)c(Cl)c2)C(=O)/C(=C/c2ccc(Cl)c(Cl)c2)C1
Response: 0.648 µM
